Attribution: paper PMC6134108

# protocol: in vivo
# settings: mouse, 1 mg/kg

[
  {
    "sample.smiles": "C[C@@H]1[C@H](O)[C@@H](C)/C=C/C=C/CC/C=C/C=C/C=C/C=C/[C@H](O[C@@H]2O[C@H](C)[C@@H](O)[C@H](N)[C@@H]2O)C[C@@H]2O[C@](O)(C[C@@H](O)[C@H](O)CC[C@@H](O)C[C@@H](O)C[C@@H](O)CC(=O)O[C@H]1C)C[C@H](O)[C@H]2C(=O)O",
    "display.unit": "h",
    "half-life": 0.6
  },
  {
    "sample.smiles": "C[C@@H]1[C@H](O)[C@@H](C)/C=C/C=C/C=C/C=C/C=C/C=C/C=C/[C@H](O[C@@H]2O[C@H](C)[C@@H](O)[C@H](N)[C@@H]2O)C[C@@H]2O[C@](O)(C[C@@H](O)C[C@@H](O)[C@H](O)CC[C@@H](O)C[C@@H](O)CC(=O)O[C@H]1C)C[C@H](O)[C@H]2C(=O)O",
    "display.unit": "h",
    "half-life": 3.4
  }
]

====

# protocol: Microsomal (metabolic) stability
# Format: in vitro ADME
# settings: pH 7.4; human liver microsomes 1.0 mg/ml, 1 µM, 80-min incubation
Property: remaining at 80 min, 1 µM; scope: individual molecules

[
  {
    "molecule": "CC(=O)NC1C(OC2C(C)OC(OC3C=CC=CC=CC=CC=CC=CC=CC(C)C(O)C(C)C(C)OC(=O)CC(O)CC(O)CC(O)CCC(O)C(O)CC4(O)CC(O)C(C(=O)O)C(C3)O4)C(O)C2N)OC(CO)C(O)C1O (stereo not shown) [NPP B1, Nystatin-like Pseudonocardia polyene B1]",
    "display.unit": "%",
    "remaining at 80 min, 1 µM": 28.2
  },
  {
    "molecule": "CC(=O)NC1C(OC2C(C)OC(OC3C=CC=CC=CC=CCCC=CC=CC(C)C(O)C(C)C(C)OC(=O)CC(O)CC(O)CC(O)CCC(O)C(O)CC4(O)CC(O)C(C(=O)O)C(C3)O4)C(O)C2N)OC(CO)C(O)C1O (stereo not shown) [NPP A1]",
    "display.unit": "%",
    "remaining at 80 min, 1 µM": 60.9
  },
  {
    "molecule": "C[C@@H]1[C@H](O)[C@@H](C)/C=C/C=C/CC/C=C/C=C/C=C/C=C/[C@H](O[C@@H]2O[C@H](C)[C@@H](O)[C@H](N)[C@@H]2O)C[C@@H]2O[C@](O)(C[C@@H](O)[C@H](O)CC[C@@H](O)C[C@@H](O)C[C@@H](O)CC(=O)O[C@H]1C)C[C@H](O)[C@H]2C(=O)O [Nystatin A1, nystatin A1]",
    "display.unit": "%",
    "remaining at 80 min, 1 µM": 115
  },
  {
    "molecule": "C[C@@H]1[C@H](O)[C@@H](C)/C=C/C=C/C=C/C=C/C=C/C=C/C=C/[C@H](O[C@@H]2O[C@H](C)[C@@H](O)[C@H](N)[C@@H]2O)C[C@@H]2O[C@](O)(C[C@@H](O)C[C@@H](O)[C@H](O)CC[C@@H](O)C[C@@H](O)CC(=O)O[C@H]1C)C[C@H](O)[C@H]2C(=O)O [Amphotericin B, amphotericin B]",
    "display.unit": "%",
    "remaining at 80 min, 1 µM": 101
  }
]
